Listed below: GI50 values for each entry.
Tested on: MCF7
Test: NCI tumour cell line growth inhibition, 48 h
Activity calls are given as the source filed them. Rule as the data show it: active = GI50 up to about 1.1 µM and inactive = higher.

// below: answered molecules
- COC(=O)c1ccccc1CC1Cc2c(C)ccc(C)c2C1=O (stereo unspecified): 11.2 µM (inactive)
- COC1=C[C@]2(CCC(=O)O2)[C@@H]2Cc3ccccc3[C@H](O)[C@@H]2C1=O: 44 µM (inactive)
- COc1cc(C2S/C(=C/c3ccccc3)C(=O)N2c2ccc([N+](=O)[O-])cc2)cc(OC)c1OC (stereo unspecified): 58.3 µM (inactive)
- N#Cc1c(-c2ccccc2)[nH]c2ccccc2c1=O: 67 µM (inactive)
- CC(=O)OC[C@H]1[C@@H]2C(CC[C@]13CO3)OC(=O)CC(C)[C@]2(C)CCc1ccoc1 (stereo partly specified): > 100 µM (inactive)

The molecule listed as Cc1cn(C(C)OCCN2C(=O)c3ccccc3C2=O)c(=O)[nH]c1=O (stereo unspecified) has a reported GI50 of > 100 µM (inactive)

The molecule listed as "COc1ccc(-n2sc3ncc([N+](=O)[O-])cc3c2=O)cc1" has a reported GI50 of > 100 µM (inactive)

The molecule listed as "CN1C[C@H]2[C@@H](C1=O)[C@H](c1ccc([N+](=O)[O-])cc1)ON2C" has a reported GI50 of > 100 µM (inactive)

The molecule listed as "COc1ccc(N2C(=O)C(=O)C3(CCCCC3)C2=O)c(OC)c1OC" has a reported GI50 of > 100 µM (inactive)

The molecule listed as "O=C1C(O)=C(CC=C(Cl)Cl)C(=O)c2ccccc21" has a reported GI50 of 8.87 µM (inactive)

The molecule listed as "C=Cc1nc2c(Cl)ncnc2n1Cc1ccccc1" has a reported GI50 of 1.55 µM (inactive)

The molecule listed as "O=S(=O)(O)c1ccc(/N=N\c2ccc(/N=N\c3ccc(/C=C/c4ccc(/N=[N+](/[O-])c5ccc(/C=C/c6ccc(/N=N/c7ccc(/N=N\c8ccc(S(=O)(=O)O)cc8)cc7)cc6S(=O)(=O)O)c(S(=O)(=O)O)c5)cc4S(=O)(=O)O)c(S(=O)(=O)O)c3)cc2)cc1" has a reported GI50 of > 100 µM (inactive)

The molecule listed as Cc1cccc(C(O)c2ccccn2)c1O (stereo unspecified) has a reported GI50 of > 100 µM (inactive)

The molecule listed as "CC(C)Cn1cnc2c(Cl)nc3ccccc3c21" has a reported GI50 of 47.9 µM (inactive)

The molecule listed as "O=C(CCNC12CC3CC(CC(C3)C1)C2)c1ccccc1" has a reported GI50 of 19.3 µM (inactive)

The molecule listed as "Cc1cc(S(N)(=O)=O)c(SCc2nc(N)nc(N(C)C)n2)cc1Cl" has a reported GI50 of > 10 µM (inactive)

The molecule listed as "CC(C)(C)c1ccc(-c2nc3ccc([N+](=O)[O-])cc3c(=O)o2)cc1" has a reported GI50 of 34.1 µM (inactive)

The molecule listed as "Clc1ccc(/C(=C/c2ccccc2)Cn2ccnc2)cc1" has a reported GI50 of 20.4 µM (inactive)

The molecule listed as "O=S(=O)(O)c1ccc2c(/N=N\c3cccc4ccccc34)c(O)c(S(=O)(=O)O)cc2c1" has a reported GI50 of > 100 µM (inactive)

The molecule listed as "CN1C(=O)CN(NC(=O)C2=C(O)c3ccc(Br)cc3S(=O)(=O)N2)C1=S" has a reported GI50 of 53.7 µM (inactive)

The molecule listed as "CC(C)Oc1c(N(Cc2ccccc2)c2ccccc2C2SCCCS2)c(=O)c1=O" has a reported GI50 of 4.16 µM (inactive)
